Biological target: USP2
Assay: pooled miR-30 sensor sort-seq; sequence = guide strand
Details: shRNA
Listing: sensor-assay potency score (higher = more potent) of selected sequences
Provide a numeric answer; units are not to be included.

macromolecule_sequence: TTTTGCAAACTCTTCCACGAGG
test_result: -0.596
--
macromolecule_sequence: TAGAACAGTAACCACAATCTGT
test_result: -0.00783
--
macromolecule_sequence: TAGGTCTCAGTGTCACTCGGTT
test_result: -0.44

Name the recorded sensor-assay potency score (higher = more potent) for TATTTTCTCCACATCTGTCGGC .
0.643

Name the recorded sensor-assay potency score (higher = more potent) for TTAGGTCTCAGTGTCACTCGGT .
0.557

Name the recorded sensor-assay potency score (higher = more potent) for TAGATATTTTCTCCACATCTGT .
-1.14

====

Target: PTPRT
Experiment: pooled miR-30 sensor sort-seq; sequence = guide strand
Conditions: shRNA
Entry flag: 1 if sensor-assay potency score (higher = more potent) reaches -0.4; -1 if it does not.

# example entries with known answers
macromolecule_sequence: TAGTTGATCTCGTAGAGCGTGA
experimental_target: PTPRT
label_value: 1
//
macromolecule_sequence: TATTGTAGTAGAGAGAACGGAA
experimental_target: PTPRT
label_value: 1
//
macromolecule_sequence: TATCTGATATTCATTGACCTGA
experimental_target: PTPRT
label_value: 1
//
macromolecule_sequence: TTGAGTCGCAATGTAGTGCCGA
experimental_target: PTPRT
label_value: 1
//
macromolecule_sequence: TATCTTGTTTGTCTCTTCCAAA
experimental_target: PTPRT
label_value: -1
//
macromolecule_sequence: TAGATTTTTTAACACAGCCATG
experimental_target: PTPRT
label_value: -1

As a next step, examine the sequence that follows.
For this sequence, is measured sensor-assay potency score (higher = more potent) -0.4 or higher? TTGGTCTTGATCTTGAGCCTAT
-1

====

Biological target: RXFP4
Test: pooled miR-30 sensor sort-seq; sequence = guide strand
Conditions: shRNA
Entry flag: fulfilled if sensor-assay potency score (higher = more potent) reaches -1; not fulfilled if it does not.

# example entries with known answers
macromolecule_sequence: TAGAAGGGCGGCTCTCCCGGGG
label_value: fulfilled
//
macromolecule_sequence: TAGACGTTGAGGACAGTGGCCG
label_value: fulfilled
//
macromolecule_sequence: TTGCTTGCGACCCACCGCCTGC
label_value: fulfilled
//
macromolecule_sequence: TCTTGCAGAGGGCACCTCCGAA
label_value: not fulfilled

For this sequence, is measured sensor-assay potency score (higher = more potent) -1 or higher? TAGGAATTTGACAGGCATCGGA
fulfilled

For this sequence, is measured sensor-assay potency score (higher = more potent) -1 or higher? AGGAATTTGACAGGCATCGGAG
not fulfilled

====

Listing: sensor-assay potency score (higher = more potent) of selected sequences
Target: LGALS7B
Test: pooled miR-30 sensor sort-seq; sequence = guide strand
Conditions: shRNA

Some solved cases for reference:
macromolecule_sequence: ATGATGAGCACCTCGAAGGGCT
test_result: -0.649
//
macromolecule_sequence: TGAAGCCGTCGTCTGACGCGAT
test_result: -0.633
//
macromolecule_sequence: TTTACATGGAACCTGCTGGCAT
test_result: -0.552

Name the recorded sensor-assay potency score (higher = more potent) for TTGCTGTTGAAGACCACCTCCG .
-0.31

Name the recorded sensor-assay potency score (higher = more potent) for TGAAATGCAGGGCGGCATCGGA .
-1.07

Name the recorded sensor-assay potency score (higher = more potent) for TTGGGAGGAACCAAGCCGCGAA .
-0.897

Name the recorded sensor-assay potency score (higher = more potent) for TGCTGTTGAAGACCACCTCCGA .
-0.584
